Settings: male, human, in vivo, 24.2 h
Description: An open-label, inpatient, multiple-dose tigecycline, single-dose [^14C]tigecycline metabolic disposition and mass balance study was performed in six healthy male volunteers. The clinical protocol called for twelve subjects. […] Individual fecal sample homogenates, prepared from each fecal sample collected up to 48 hours following the [^14C]-labeled tigecycline dose, that contained greater than 8000 dpm/g were analyzed for metabolite profiles. […] Selected samples were also analyzed by LC/MS. […]
experimental.endpoint: Relative Distribution (%) of radioactivity in extracted fecal homogenate

compound	result
CN(C)c1cc(NC(=O)CNC(C)(C)C)c(O)c2c1C[C@H]1C[C@H]3[C@H](N(C)C)C(O)=C(C(N)=O)C(=O)[C@@]3(O)C(O)=C1C2=O	44.9%
CN(C)c1cc(NC(=O)CNC(C)(C)C)c(O)c2c1C[C@H]1C[C@H]3C(N(C)C)C(O[C@@H]4O[C@H](C(=O)O)[C@@H](O)[C@H](O)[C@H]4O)=C(C(N)=O)C(=O)[C@@]3(O)C(O)=C1C2=O (stereo in doubt) [Metabolite M7, tigecycline glucuronide]	23.5%
CC(C)(C)NCC(=O)O [Metabolite M3a, t-butylaminoacetic acid]	13.9%
CN(C)c1cc(NC(=O)CNC(C)(C)C)c(O)c2c1C[C@H]1C[C@H]3[C@@H](N(C)C)C(O[C@@H]4O[C@H](C(=O)O)[C@@H](O)[C@H](O)[C@H]4O)=C(C(N)=O)C(=O)[C@@]3(O)C(O)=C1C2=O [Metabolite M6, epimer of tigecycline glucuronide]	5.8%

These data points were gathered from patent US7534766B2.
